# Target Or System: human GM-CSF T117 (human, UniProt P04141 18-144)
# Sequence (P04141 18-144 I117T limits assumed): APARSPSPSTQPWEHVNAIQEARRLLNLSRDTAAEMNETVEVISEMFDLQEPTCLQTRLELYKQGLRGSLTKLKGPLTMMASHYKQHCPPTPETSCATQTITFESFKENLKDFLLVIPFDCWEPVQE
# Test Description: cell-based or functional assay
Readout Label: Fold human T117/I117 (IC50, TF-1 proliferation) (fold)
Lab book: enter the figure in fold, no units written.

A selection of reference data follows.
1. humanized parental anti-GM-CSF 4K21 VH3-07.1AL+VK2-A3.2 hIgG1K antibody (MSB0010439) (antibody, V domains shown, Human IgG1 kappa; also called humanized parental 4K21 hVH hVL; parental 4K21) VH: EVQLVESGGGLVQPGGSLRLSCAASGFAFSAYDMSWVRQAPGKRLELVAYISSGGSSFYYPDTVKGRFTISRDNAKNSLYLQMNSLRAEDTAVYYCTRHLGFDYWGQGTLVTVSS VL: DIVMTQSPLSLPVTPGEPASISCRSSQSLVNSNGNTYLHWYLQKPGQSPQLLIYKVSNRFSGVPDRFSGSGSGTDFTLKISRVEAEDVGVYYCSQSTHVPPTFGQGTKVEIK ... 11.6
2. MSB0010595 4K21 (4K21 hVH S56V-T62S hVL S27eY-N28I-H34S-N53R-H93Y) (antibody, V domains shown) VH: EVQLVESGGGLVQPGGSLRLSCAASGFAFSAYDMSWVRQAPGKRLELVAYISSGGSVFYYPDSVKGRFTISRDNAKNSLYLQMNSLRAEDTAVYYCTRHLGFDYWGQGTLVTVSS VL: DIVMTQSPLSLPVTPGEPASISCRSSQSLVNYIGNTYLSWYLQKPGQSPQLLIYKVSRRFSGVPDRFSGSGSGTDFTLKISRVEAEDVGVYYCSQSTYVPPTFGQGTKVEIK ... 1.2
3. humanized parental 4K21 hVH hVL + H93Y (MS100305-A) (antibody, V domains shown) VH: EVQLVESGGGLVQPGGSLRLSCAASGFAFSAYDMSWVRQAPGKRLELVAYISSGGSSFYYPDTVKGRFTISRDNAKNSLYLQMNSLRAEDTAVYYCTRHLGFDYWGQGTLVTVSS VL: DIVMTQSPLSLPVTPGEPASISCRSSQSLVNSNGNTYLHWYLQKPGQSPQLLIYKVSNRFSGVPDRFSGSGSGTDFTLKISRVEAEDVGVYYCSQSTYVPPTFGQGTKVEIK ... 5.8
4. MSB0010603 4K21 (4K21 hVH S56V-T62S hVL N28I-H34S-N53R-H93Y) (antibody, V domains shown, IgG) VH: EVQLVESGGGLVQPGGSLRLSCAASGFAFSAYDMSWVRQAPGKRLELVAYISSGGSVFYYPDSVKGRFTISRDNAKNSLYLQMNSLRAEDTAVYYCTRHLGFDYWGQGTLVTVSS VL: DIVMTQSPLSLPVTPGEPASISCRSSQSLVNSIGNTYLSWYLQKPGQSPQLLIYKVSRRFSGVPDRFSGSGSGTDFTLKISRVEAEDVGVYYCSQSTYVPPTFGQGTKVEIK ... 0.9

Tell me the measured Fold human T117/I117 (IC50, TF-1 proliferation) of MSB0010599 4K21 (4K21 hVH S55R-T62S hVL N28I-H34S-N53R-H93Y) (antibody, V domains shown, IgG) VH: EVQLVESGGGLVQPGGSLRLSCAASGFAFSAYDMSWVRQAPGKRLELVAYISSGGRSFYYPDSVKGRFTISRDNAKNSLYLQMNSLRAEDTAVYYCTRHLGFDYWGQGTLVTVSS VL: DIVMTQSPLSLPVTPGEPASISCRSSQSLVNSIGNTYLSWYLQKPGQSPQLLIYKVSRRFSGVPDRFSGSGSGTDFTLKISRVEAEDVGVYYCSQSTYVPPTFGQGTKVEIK , please.
1

Data provenance is patent US20140065163A1.
